Test Details: DUSP6 inhibitors restoring Erk phosphorylation by chemical complementation, primary imaging in DUSP6-transfected HeLa (AID 609)
Assay Setup: HeLa MKP-3 transfected, phospho-Erk imaging KS statistic; measured here: nuclear c-Myc green intensity z-score; at 10 µM; cells stimulated with TPA for 15 min
Hi there, I'd appreciate the recorded z-score for every entry that follows.

Compound | z-score
C=CCOc1ccc(C2/C(=C(\O)c3ccc(F)cc3)C(=O)C(=O)N2CCCN(C)C)cc1 (stereo unspecified) | 1.06
CC(C)C(=O)N1CCN(c2nc(-c3ccccc3)c3c(c2C#N)CC(C)(C)OC3)CC1 | 0.868
Cc1ccc(NC(=O)c2cc(N3CCOCC3)nc3ccccc23)cc1 | 1.28
CCN(CC)c1ccc(C2Nc3cccc4cccc(c34)N2)c(O)c1 | -0.845
C/C(=N\O)C(=O)NCCCn1ccnc1 | 0.0271

Could I get z-score for every one of these entries?
1. Cc1ccc(Oc2nc3c(c(=O)n(Cc4ccccc4F)c(=O)n3C)n2C)cc1
2. CCCC(C)n1[nH]c(=O)cc1N (stereo unspecified)
3. CCCCOC(=O)c1[nH]c(C)c(C(=O)OC)c1C
4. CCOC(=O)NC(Nc1sc2c(c1C(=O)OC)CCN(C)C2)(C(F)(F)F)C(F)(F)F

Result string:
[-1.95, -1.78, -1.07, -0.407]

For each of the compounds below, state z-score.
1. COCCCn1c2nc3ccccc3nc2c2c(=O)n(-c3ccccc3OC)c(C)nc21
2. N#C/C(C(=O)NCc1ccco1)=C1/SC(Cc2ccc(Cl)cc2)C(=O)N1c1ccccc1 (stereo unspecified)

Result string:
1. -0.748
2. -0.248
